# assay_target: androgen receptor (AR) (Homo sapiens)
# Construct: endogenous in cells; host or cells: VCAP
# Sequence (P10275 whole entry): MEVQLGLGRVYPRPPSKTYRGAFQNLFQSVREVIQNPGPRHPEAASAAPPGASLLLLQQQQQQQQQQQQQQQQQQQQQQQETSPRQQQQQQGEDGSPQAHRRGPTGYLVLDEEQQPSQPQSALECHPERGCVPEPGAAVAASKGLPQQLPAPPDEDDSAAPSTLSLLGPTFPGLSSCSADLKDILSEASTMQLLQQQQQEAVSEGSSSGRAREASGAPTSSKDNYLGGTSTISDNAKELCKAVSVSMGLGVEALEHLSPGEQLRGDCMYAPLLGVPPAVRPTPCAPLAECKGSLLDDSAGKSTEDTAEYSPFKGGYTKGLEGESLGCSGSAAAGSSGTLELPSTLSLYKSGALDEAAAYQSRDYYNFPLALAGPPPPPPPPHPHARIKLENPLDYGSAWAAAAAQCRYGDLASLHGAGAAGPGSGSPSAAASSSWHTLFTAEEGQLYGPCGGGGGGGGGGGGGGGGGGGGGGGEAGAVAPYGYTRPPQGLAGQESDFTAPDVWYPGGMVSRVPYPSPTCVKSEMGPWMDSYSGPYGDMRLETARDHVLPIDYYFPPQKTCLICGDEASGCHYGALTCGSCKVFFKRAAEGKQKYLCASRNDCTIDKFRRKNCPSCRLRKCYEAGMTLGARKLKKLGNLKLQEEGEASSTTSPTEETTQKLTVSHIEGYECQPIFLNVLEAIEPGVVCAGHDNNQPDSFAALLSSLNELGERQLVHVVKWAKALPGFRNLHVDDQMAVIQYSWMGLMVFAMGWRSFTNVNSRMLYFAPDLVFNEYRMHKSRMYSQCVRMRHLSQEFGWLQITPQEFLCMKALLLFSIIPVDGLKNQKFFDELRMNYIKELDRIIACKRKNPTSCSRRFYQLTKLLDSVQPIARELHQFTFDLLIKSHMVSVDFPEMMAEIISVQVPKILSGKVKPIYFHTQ
# assay_details: AR degradation activity in VCAP cells (Western blot)
# Format: cell-based
# conditions: 24 hours after administration, DC50 = concentration needed for 50% target protein degradation
metric_name: DC50

compound	assay_target	DC50
N#Cc1ccc(OC2CCC(NC(=O)c3ccc(N4CCC(CN5CCN(c6ccc7c(c6)C(=O)N(C6CCC(=O)NC6=O)C7=O)CC5)CC4)c(F)c3)CC2)c2cccnc12 (stereo not drawn)	androgen receptor (AR) (Homo sapiens)	< 10 nM
N#Cc1ccc(O[C@H]2CC[C@H](NC(=O)c3cnc(N4CCC(CN5CCN(c6ccc7c(c6)C(=O)N(C6CCC(=O)NC6=O)C7=O)CC5)CC4)nc3)CC2)c2cccnc12 (stereo partly drawn)	androgen receptor (AR) (Homo sapiens)	< 10 nM

# context switch: different compound, same DC50
Q) Fill in reported DC50 for this entry: N#Cc1ccc(O[C@H]2CC[C@H](NC(=O)c3ccc(N4CCC(CCN5CCN(c6ccc7c(c6)C(=O)N(C6CCC(=O)NC6=O)C7=O)CC5)CC4)cc3)CC2)c2cccnc12 (relative stereo)
A) < 10 nM
